Tested system: T1, 4H3297-bN
T1 chain: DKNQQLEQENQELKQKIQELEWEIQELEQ
Measurement notes: two-hybrid library CCNG1;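 also: natural log of median RNA to DNA barcode read ratio; higher means stronger binding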
Outcome measure: interaction score

Per the records, this binder ( DKIQQLEQKNQELEQEIQELKWENQELKQ [4H2444-bN] ) has interaction score equal to -0.0483

(1) DKNQQLEQENQELKQKIQELEWEIQELEQ [4H3297-bN]
(2) DENQELEKEIEELERKIWELKKKNQELKR [4H1072-bH]
(3) DKIQQLKQKIQELKQKNQELEWENQELEQ [4H2931-bN]
(4) DEIQQLEQKIQELEQEIQELEWKNQELKQ [4H264-bN]
(5) DKIQQLKQKNQELKQKIQELEWEIQELEQ [4H3041-bN]
Rank ascending by interaction score. Reply with the labels, ordered as the question asks.
5, 3, 1, 4, 2
(5: -2.23, 3: -0.835, 1: -0.0469, 4: 0.44, 2: 0.827)
